assayExplanation: Volume of distribution in Sprague-Dawley rat at 2 mg/kg, iv measured for 0.033 to 24 hrs by LC-MS/MS analysis
Type: ADME, organism-based
setupConditions: in vivo, time 0.033-24 hrs
assayMetric: Vd (L/kg)
Answers are plain numbers, in L/kg.

GET /value?item= COc1ccncc1C(=O)N1CCN(c2ccc(Cl)c(Cl)c2)[C@H](C(=O)NCc2cccs2)C1.Cl &field=Vd returns 2.07

====

assayExplanation: AUC (0 to infinity) in Sprague-Dawley rat at 2 mg/kg, iv measured for 0.033 to 24 hrs by LC-MS/MS analysis
Assay type: ADME, organism-based
Design: time 0.033-24 hrs, dose 2 mg/kg, route iv
setupConditions: in vivo
assayMetric: AUC(0-inf) (ng·h/mL)
Numbers only, in ng·h/mL.

# compound COc1ccncc1C(=O)N1CCN(c2ccc(Cl)c(Cl)c2)[C@H](C(=O)NCc2cccs2)C1.Cl ; its AUC(0-inf) = 431

====

Field: CC50 at 600 h. Provide a value for each of the compounds that follow.
assayExplanation: Cytotoxicity in African green monkey Vero E6 cells […] by Neutral red release assay
Format: toxicity, cell-based, Vero C1008
setupConditions: chlorocebus sabaeus, Vero E6 cells

Completed entries (count: 2):
* O=C(NCc1ccc(F)s1)[C@@H]1CN(C(=O)c2cccnc2)CCN1c1ccc(Cl)c(Cl)c1 | 79 µM
* O=C(NCc1cccs1)[C@@H]1CN(C(=O)c2cnccc2Cl)CCN1c1ccc(Cl)c(Cl)c1 | > 100 µM

Consider now this further compound.
Summary for this compound, O=C(NCc1cccs1)[C@@H]1CN(C(=O)c2cncc(F)c2)CCN1c1ccc(Cl)c(Cl)c1 : CC50 at 600 h is > 100 µM

====

assayExplanation: Half life in Sprague-Dawley rat at 10 mg/kg, po measured for 0.083 to 24 hrs by LC-MS/MS analysis
Assay type: ADME, organism-based
setupConditions: in vivo, time 0.083-24 hrs
assayMetric: half-life (h)
Answers are plain numbers, in h.

Briefly, half-life measured for COc1ccncc1C(=O)N1CCN(c2ccc(Cl)c(Cl)c2)[C@H](C(=O)NCc2cccs2)C1.Cl : 1.44

====

studyTarget: Replicase polyprotein 1ab (Severe acute respiratory syndrome coronavirus 2, UniProt P0DTD1)
Lab note: compare IC50 with 400 nM, writing T if less and F if equal or more.

Here's what some known entries look like.
* O=C(NCc1cccs1)[C@@H]1CN(C(=O)c2cncc(F)c2)CCN1c1ccc(Cl)c(Cl)c1 | T
* COc1ccc(NC(=O)[C@@H]2CN(C(=O)c3cccnc3)CCN2c2ccc(Cl)c(Cl)c2)cc1 | T
* CN(Cc1cccs1)C(=O)[C@@H]1CN(C(=O)c2cccnc2)CCN1c1ccc(Cl)c(Cl)c1 | F
* COc1ccncc1C(=O)N1CCN(c2ccc(Cl)c(Cl)c2)[C@H](C(=O)Nc2cc(F)c(OC)c(F)c2)C1 | F

Proceed to the following item.
Ask | I wonder whether O=C(NCc1cccs1)[C@@H]1CN(C(=O)c2cncc3cc[nH]c23)CCN1c1ccc(Cl)c(Cl)c1 has IC50 below 400 nM. Can you tell?
Reply | T

====

assayExplanation: AUC (0 to t) in Sprague-Dawley rat at 2 mg/kg, iv measured for 0.033 to 24 hrs by LC-MS/MS analysis
Assay type: ADME, organism-based
Set-up: time lower 0.033 hrs, dose 2 mg/kg, time upper 24 hrs, route iv
setupConditions: in vivo
assayMetric: AUC(0-t) (ng·h/mL)
Numbers only, in ng·h/mL.

AUC(0-t) reported for this compound COc1ccncc1C(=O)N1CCN(c2ccc(Cl)c(Cl)c2)[C@H](C(=O)NCc2cccs2)C1.Cl : 428

====

assayExplanation: AUC (0 to t) in Sprague-Dawley rat at 10 mg/kg, po measured for 0.083 to 24 hrs by LC-MS/MS analysis
Type: ADME, organism-based
Design: time 0.083-24 hrs, dose 10 mg/kg, route po
setupConditions: in vivo
assayMetric: AUC(0-t) (ng·h/mL)
Give bare numbers, in ng·h/mL.

For COc1ccncc1C(=O)N1CCN(c2ccc(Cl)c(Cl)c2)[C@H](C(=O)NCc2cccs2)C1.Cl the compound record lists AUC(0-t) as 202

====

assayExplanation: Cmax in Sprague-Dawley rat at 2 mg/kg, iv measured for 0.033 to 24 hrs by LC-MS/MS analysis
Assay type: ADME, organism-based
Set-up: time upper 24 hrs, dose 2 mg/kg, time lower 0.033 hrs, route iv
setupConditions: in vivo
assayMetric: Cmax (ng/mL)
Give bare numbers, in ng/mL.

The compound COc1ccncc1C(=O)N1CCN(c2ccc(Cl)c(Cl)c2)[C@H](C(=O)NCc2cccs2)C1.Cl showed Cmax equal to 1240

====

assayExplanation: Clearance in Sprague-Dawley rat at 2 mg/kg, iv measured for 0.033 to 24 hrs by LC-MS/MS analysis
Format: ADME, organism-based
setupConditions: in vivo, time 0.033-24 hrs
assayMetric: clearance

Lookup result for COc1ccncc1C(=O)N1CCN(c2ccc(Cl)c(Cl)c2)[C@H](C(=O)NCc2cccs2)C1.Cl ; measured clearance: 77.4 mL/min/kg

====

Tested on: SARS-CoV-2
assayExplanation: Antiviral activity against SARS-CoV-2 infected in African green monkey Vero E6 cells assessed as reduction in viral replication preincubated with compound followed by viral infection for 1 hr measured after 25 to 26 hrs by ELISA
Format: functional, organism-based, Severe acute respiratory syndrome coronavirus 2
setupConditions: vero e6
Field: pEC50. Provide a value for each of the compounds that follow.
Numbers only, as −log10 of the molar value.

Please look at the items below and tell me pEC50 for each one, in order.
1. O=C(NCc1cccs1)[C@@H]1CN(C(=O)c2cncc3cc[nH]c23)CCN1c1ccc(Cl)c(Cl)c1
2. COc1ccncc1C(=O)N1CCN(c2ccc(Cl)c(Cl)c2)[C@H](C(=O)NCc2ccc(F)s2)C1
3. COc1ccncc1C(=O)N1CCN(c2ccc(Cl)c(Cl)c2)[C@H](C(=O)NCc2cccs2)C1.Cl

Reply |
[6.28, 5.85, 6.28]

====

assayExplanation: Oral bioavailability in Sprague-Dawley rat at 10 mg/kg measured for 0.083 to 24 hrs by LC-MS/MS analysis
Assay type: ADME, organism-based
setupConditions: in vivo, time 0.083-24 hrs
assayMetric: bioavailability

Memo: COc1ccncc1C(=O)N1CCN(c2ccc(Cl)c(Cl)c2)[C@H](C(=O)NCc2cccs2)C1.Cl , reported bioavailability: 10.5%

====

assayExplanation: AUC (0 to infinity) in Sprague-Dawley rat at 10 mg/kg, po measured for 0.083 to 24 hrs by LC-MS/MS analysis
Assay type: ADME, organism-based
Set-up: time 0.083-24 hrs, dose 10 mg/kg, route po
setupConditions: in vivo
assayMetric: AUC(0-inf) (ng·h/mL)
Answers are plain numbers, in ng·h/mL.

Lab note: measured AUC(0-inf) of COc1ccncc1C(=O)N1CCN(c2ccc(Cl)c(Cl)c2)[C@H](C(=O)NCc2cccs2)C1.Cl was 226

====

For each entry below, report its CC50 value.
Tested on: Vero C1008
assayExplanation: Cytotoxicity in African green monkey Vero E6 cells […] by Neutral red release assay
Type: toxicity, cell-based
setupConditions: chlorocebus sabaeus, vero c1008, 600 h; 600 h
One number for each entry, in µM.

• COc1ccncc1C(=O)N1CCN(c2ccc(Cl)c(Cl)c2)[C@H](C(=O)NCc2ccc(F)s2)C1 = 100

Consider the record given below.
Record summary for O=C(NCc1cccs1)[C@@H]1CN(C(=O)c2cncc3cc[nH]c23)CCN1c1ccc(Cl)c(Cl)c1 : reported CC50 = 42

====

assayExplanation: Tmax in Sprague-Dawley rat at 10 mg/kg, po measured for 0.083 to 24 hrs by LC-MS/MS analysis
Assay type: ADME, organism-based
setupConditions: in vivo, time 0.083-24 hrs
assayMetric: Tmax (min)
Numbers only, in min.

For this compound ( COc1ccncc1C(=O)N1CCN(c2ccc(Cl)c(Cl)c2)[C@H](C(=O)NCc2cccs2)C1.Cl ), measured Tmax is 30

====

assayExplanation: Half life in Sprague-Dawley rat at 2 mg/kg, iv measured for 0.033 to 24 hrs by LC-MS/MS analysis
Assay type: ADME, organism-based
setupConditions: in vivo, time 0.033-24 hrs
assayMetric: half-life (min)
Numbers only, in min.

The compound COc1ccncc1C(=O)N1CCN(c2ccc(Cl)c(Cl)c2)[C@H](C(=O)NCc2cccs2)C1.Cl showed half-life equal to 18.6

====

studyTarget: Replicase polyprotein 1ab (Severe acute respiratory syndrome coronavirus 2, UniProt P0DTD1)
pIC50: −log10 of the molar value.
Tick Condition met if pIC50 is 6 or greater. Tick Condition not met if pIC50 is less than 6.

Solved entries (count: 5):
• O=C(NCc1cccs1)[C@@H]1CN(C(=O)c2cnccc2Cl)CCN1c1ccc(Cl)c(Cl)c1 = Condition met
• O=C(NCc1cccs1)[C@@H]1CN(C(=O)c2cc(=O)[nH]c3ccccc23)CCN1c1ccc(Cl)c(Cl)c1 = Condition met
• O=C(NS(=O)(=O)c1cccs1)[C@@H]1CN(C(=O)c2cccnc2)CCN1c1ccc(Cl)c(Cl)c1 = Condition not met
• O=C(NCc1cccs1)[C@@H]1CN(C(=O)c2cncc3cc[nH]c23)CCN1c1ccc(Cl)c(Cl)c1 = Condition met
• COc1ccncc1C(=O)N1CCN(c2ccc(Cl)c(Cl)c2)[C@H](C(=O)NCc2cccs2)C1.Cl = Condition met

Ask | Does the reported pIC50 for O=C(NCc1ccc(Br)s1)[C@@H]1CN(C(=O)c2cccnc2)CCN1c1ccc(Cl)c(Cl)c1 fall at or above the 6 mark?
Reply | Condition not met

Ask | hey, is pIC50 for this one >= 6? COc1ccncc1C(=O)N1CCN(c2ccc(Cl)c(Cl)c2)[C@H](C(=O)Nc2ccc(OC(F)F)cc2)C1
Reply | Condition met

Ask | Quick check, pIC50 >= 6? O=C(NCc1ccc(F)s1)[C@@H]1CN(C(=O)c2cccnc2)CCN1c1ccc(Cl)c(Cl)c1
Reply | Condition met

Ask | Dear colleague, could you confirm whether O=C(NCc1cccs1)[C@@H]1CN(C(=O)c2cncc(O)c2)CCN1c1ccc(Cl)c(Cl)c1 has pIC50 at or above 6?
Reply | Condition met
